The following compounds are listed with their measured inhibition of growth at 10 µM values.
System: K562
protocol_notes: Growth inhibition of human K562 cells at 10 uM incubated for 24 hrs by trypan blue dye exclusion assay
Assay type: functional
assay_setup: K562, 24 h, read-out: GI
Record the value in %, omitting the unit from your answer.

A selection of reference data follows.
COc1ccc(NC(=O)COc2ccccc2C)c(C(N)=O)c1    40.1
Cc1ccc(OCC(=O)Nc2ccc(C)cc2C(N)=O)cc1    30.3
COc1cc2c(c(OC)c1OC)-c1ccc(OC)c(=O)cc1[C@@H](NC(C)=O)CC2 [COLCHICINE]    63.6
COc1cc(NC(=O)COc2cccc(Cl)c2Cl)c(C(N)=O)cc1OC    17.7
Cc1ccc(NC(=O)COc2ccccc2)c(C(N)=O)c1    72
COc1ccc(NC(=O)COc2ccccc2)c(C(N)=O)c1    85.3

Lab book: inhibition of growth at 10 µM of "Cc1ccccc1OCC(=O)Nc1ccccc1C(N)=O" noted as 19.7

Note to self: inhibition of growth at 10 µM recorded for "Cc1ccc(OCC(=O)Nc2ccc(I)cc2C(N)=O)cc1" was 49.8

// "NC(=O)c1cc(I)ccc1NC(=O)COc1ccccc1" : inhibition of growth at 10 µM value = 73

Looking up "NC(=O)c1cc(I)ccc1NC(=O)COc1ccc(Cl)cc1Cl" , I found its inhibition of growth at 10 µM recorded as 74.7

Entry "NC(=O)c1ccccc1NC(=O)COc1ccccc1" — recorded inhibition of growth at 10 µM = 57.4

Reported inhibition of growth at 10 µM of "NC(=O)c1cc(Cl)ccc1NC(=O)COc1ccccc1" : 87

Query "Cc1ccc(NC(=O)COc2cccc(Cl)c2Cl)c(C(N)=O)c1" yields inhibition of growth at 10 µM of 30.8

Reported inhibition of growth at 10 µM ( "Cc1ccccc1OCC(=O)Nc1ccc(Cl)cc1C(N)=O" ) = 75.9

Recorded inhibition of growth at 10 µM (compound "NC(=O)c1ccc(NC(=O)COc2ccccc2)cc1" ): 23.7

The value of inhibition of growth at 10 µM measured for the compound "COc1ccc(NC(=O)COc2ccc(C)cc2)c(C(N)=O)c1" turned out to be 48.1

inhibition of growth at 10 µM for "Cc1ccc(NC(=O)COc2ccc(Cl)cc2Cl)c(C(N)=O)c1" is 35.4

inhibition of growth at 10 µM for "COc1cc(NC(=O)COc2ccccc2)c(C(N)=O)cc1OC" is 72.8

The reported inhibition of growth at 10 µM of the compound "Cc1ccc(NC(=O)COc2ccccc2C)c(C(N)=O)c1" was 45.6

Documented inhibition of growth at 10 µM of "NC(=O)c1cc(Cl)ccc1NC(=O)COc1ccc(Cl)cc1Cl" : 18.8

Noted for "Cc1ccc(OCC(=O)Nc2ccc(Cl)cc2C(N)=O)cc1" : its inhibition of growth at 10 µM reads 24.1
